assay: Evaluation of retinal penetration of NACA: NACA and NAC levels in plasma, aqueous, vitreous and retina after NACA in drinking water; type: in vivo, mice (rd10/rd10 and wild type C57/BL6); settings: rd10/rd10 (B6.CXB1-Pde6brd10/J), mouse, retina, oral, 20 mg/mL in drinking water; rd10 mice; 20 mg/mL NACA in drinking water, P28 to P35; estimated dose 60-80 mg/day
QUANTITY_MEASURED: concentration at 7 days

Briefly, concentration at 7 days measured for CC(=O)N[C@@H](CS)C(N)=O : ~6500 ng/g

src = patent US11766413B2
